Values were extracted from paper PMC4556614.

assayed system: OCT2 (Homo sapiens, UniProt O15244)
Sequence (O15244 whole entry): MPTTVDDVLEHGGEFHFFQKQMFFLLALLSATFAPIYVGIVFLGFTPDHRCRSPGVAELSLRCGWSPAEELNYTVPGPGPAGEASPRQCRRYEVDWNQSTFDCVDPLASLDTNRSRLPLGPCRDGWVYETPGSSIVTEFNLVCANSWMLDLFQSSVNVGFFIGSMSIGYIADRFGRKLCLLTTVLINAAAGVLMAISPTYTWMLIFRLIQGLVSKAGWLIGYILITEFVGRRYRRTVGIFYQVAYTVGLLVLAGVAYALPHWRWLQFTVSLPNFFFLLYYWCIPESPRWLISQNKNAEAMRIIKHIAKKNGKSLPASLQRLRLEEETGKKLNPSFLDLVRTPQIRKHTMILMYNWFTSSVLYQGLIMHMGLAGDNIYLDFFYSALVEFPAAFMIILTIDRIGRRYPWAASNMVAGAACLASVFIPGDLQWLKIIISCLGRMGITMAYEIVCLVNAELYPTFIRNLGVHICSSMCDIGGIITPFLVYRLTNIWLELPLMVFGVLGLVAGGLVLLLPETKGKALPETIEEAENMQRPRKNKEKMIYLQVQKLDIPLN
assay protocol: Inhibition of OCT2-mediated [3H]MPP+ uptake in HEK-OCT2 cells
experimental parameters: human, pH 7.3, probe [3H]MPP+, 50 µM
Think of -10% as a floor: if inhibition at 3 min, 20 µM stands on it or above, it is condition met; beneath it, condition not met.

Solved cases below.
molecule | cat
COc1ccc2cccc(CCNC(C)=O)c2c1 [Agomelatine] | condition not met
COc1nc(C)nc(Cl)c1N=C1NCCN1 [Moxonidine] | condition met
CCN1CCCC1CNC(=O)c1cc(S(=O)(=O)CC)c(N)cc1OC (stereo not shown) [Amisulpride] | condition met
CCOc1nc2cccc(C(=O)O)c2n1Cc1ccc(-c2ccccc2-c2nnn[nH]2)cc1 [Candesartan] | condition met
CCCc1nc(C(C)(C)O)c(C(=O)O)n1Cc1ccc(-c2ccccc2-c2nnn[nH]2)cc1 [Olmesartan] | condition not met
COC(=O)C1=C(C)NC(C)=C(C(=O)OC(C)(C)CN(C)CCC(c2ccccc2)c2ccccc2)C1c1cccc([N+](=O)[O-])c1 (stereo not shown) [Lercanidipine] | condition not met
Oc1ncnc2[nH]ncc12 [Allopurinol] | condition met
O=C1[C@H](CC[C@H](O)c2ccc(F)cc2)[C@@H](c2ccc(O)cc2)N1c1ccc(F)cc1 [Ezetimibe] | condition not met

Q: Exam item: decide whether the reported inhibition at 3 min, 20 µM for N[C@@H](Cc1cc(I)c(Oc2cc(I)c(O)c(I)c2)c(I)c1)C(=O)O [Levothyroxine] is at least -10%.
Ans: condition met

Q: Quick check, inhibition at 3 min, 20 µM >= -10%? C[C@]12CCC(=O)C=C1[C@@H]1C[C@@H]1[C@H]1[C@@H]3[C@@H]4C[C@@H]4[C@@]4(CCC(=O)O4)[C@@]3(C)CC[C@@H]12 [Drospirenone]
Ans: condition met

====

assayed system: OCT2 (Homo sapiens, UniProt O15244)
assay protocol: Inhibition of OCT2-mediated [3H]MPP+ uptake in HEK-OCT2 cells
experimental parameters: test drug 20 µM; MPP+ 50 μM; 3 min; net uptake HEK-OCT2 minus HEK-VC
Kindly state % Inhibition of OCT2-dependent MPP+ uptake at 20 µM (mean ± SEM) for each of the entries shown.
Give bare numbers, in %.

compound | quantitative result
NC(=O)C1(N2CCCCC2)CCN(CCCC(=O)c2ccc(F)cc2)CC1 | 12.0
N[C@@H](Cc1ccc(O)c(O)c1)C(=O)O | -24.6
COCCc1ccc(OCC(O)CNC(C)C)cc1 (stereo not drawn) | 23.2
CC12CC3CC(C)(C1)CC(N)(C3)C2 [Memantine] | 20.6
CCOC(=O)C1=C(COCCN)NC(C)=C(C(=O)OC)C1c1ccccc1Cl (stereo not drawn) | -13.8
CN(C)CC/C=C1/c2ccccc2Sc2ccc(Cl)cc21 | 29.9

Would you mind giving % Inhibition of OCT2-dependent MPP+ uptake at 20 µM (mean ± SEM) for every compound in the list below?
1. CC(C)n1c(/C=C/C(O)CC(O)CC(=O)O)c(-c2ccc(F)cc2)c2ccccc21 (stereo not drawn)
2. COc1ccc2c3c1O[C@H]1C[C@@H](O)C=C[C@@]31CCN(C)C2
3. CN(Cc1cnc2nc(N)nc(N)c2n1)c1ccc(C(=O)N[C@@H](CCC(=O)O)C(=O)O)cc1 [Methotrexate]
4. OCCN1CCN(CCCN2c3ccccc3C=Cc3ccccc32)CC1

Ans:
1: -10.1; 2: -11.7; 3: -19.0; 4: 14.0

// input: 2 compounds below; output: % Inhibition of OCT2-dependent MPP+ uptake at 20 µM (mean ± SEM) for each
1. Nc1ccc(O)c(C(=O)O)c1
2. Cn1c(=O)c2[nH]cnc2n(C)c1=O

Ans:
1: -51.3; 2: -12.9

====

assayed system: UniProtKB O15244
assay protocol: Inhibition of OCT2-mediated [3H]MPP+ uptake in HEK-OCT2 cells
experimental parameters: test drug 20 µM; MPP+ 50 μM; 3 min; net uptake HEK-OCT2 minus HEK-VC
observed property: % Inhibition of OCT2-dependent MPP+ uptake at 20 µM (mean ± SEM) (%)
Give bare numbers, in %.

Look over these answered cases.
compound | units symbol | quantitative result
CC(=O)Oc1ccccc1C(=O)O | % | -10.6
C#C[C@]1(O)CC[C@H]2[C@@H]3CCC4=CC(=O)CC[C@@H]4[C@H]3CC[C@@]21C | % | -29.4
O=C(O[C@H]1C[C@H]2CC[C@@H](C1)[N+]21CCCC1)C(O)(c1ccccc1)c1ccccc1 [Trospium chloride] | % | 83.2
O=C1CCc2ccc(OCCCCN3CCN(c4cccc(Cl)c4Cl)CC3)cc2N1 | % | 6.7
CCN(CC)CCNC(=O)c1cc(Cl)c(N)cc1OC [Metoclopramide] | % | 24.5

Lab note: each compound below needs its % Inhibition of OCT2-dependent MPP+ uptake at 20 µM (mean ± SEM) filled in.
1. CCCCC1=NC2(CCCC2)C(=O)N1Cc1ccc(-c2ccccc2-c2nnn[nH]2)cc1
2. C[C@H](CS)C(=O)N1CCC[C@H]1C(=O)O
3. CN(C)CCCN1c2ccccc2CCc2ccc(Cl)cc21
4. CO/N=C(\C(=O)N[C@@H]1C(=O)N2C(C(=O)O)=C(COC(N)=O)CS[C@H]12)c1ccco1
5. CN(C)CCC[C@@]1(c2ccc(F)cc2)OCc2cc(C#N)ccc21
6. CCOC(=O)[C@H](CCc1ccccc1)N[C@@H](C)C(=O)N1CCC[C@H]1C(=O)O
7. NCCCC[C@H](N[C@@H](CCc1ccccc1)C(=O)O)C(=O)N1CCC[C@H]1C(=O)O

Ans:
1. -18.9
2. 3.8
3. 90.3
4. -10.5
5. -26.3
6. 7.1
7. 16.0

Record % Inhibition of OCT2-dependent MPP+ uptake at 20 µM (mean ± SEM) per entry; entries follow.
1. CC1(C)S[C@@H]2[C@H](NC(=O)[C@H](N)c3ccc(O)cc3)C(=O)N2[C@H]1C(=O)O
2. COc1cc2nc(N3CCN(C(=O)C4COc5ccccc5O4)CC3)nc(N)c2cc1OC (centres unmarked)
3. CC(=O)S[C@@H]1CC2=CC(=O)CC[C@]2(C)[C@H]2CC[C@@]3(C)[C@@H](CC[C@@]34CCC(=O)O4)[C@H]12
4. CC(C)OC(=O)C(C)(C)Oc1ccc(C(=O)c2ccc(Cl)cc2)cc1 [Fenofibrate]

Ans:
-21.0
26.7
33.5
12.8

Each compound below has a recorded value; state its % Inhibition of OCT2-dependent MPP+ uptake at 20 µM (mean ± SEM).
1. O=C1Nc2ccc(Cl)cc2C(c2ccccc2Cl)=NC1O (centres unmarked)
2. Cl.Cl.OCCN1CCN(CCC=C2c3ccccc3Sc3ccc(C(F)(F)F)cc32)CC1 (mixture of isomers)

Ans:
0.3
22.9

Value sought for every listed compound: % Inhibition of OCT2-dependent MPP+ uptake at 20 µM (mean ± SEM).
1. CN(C)CCCC1(c2ccc(F)cc2)OCc2cc(C#N)ccc21 (centres unmarked)
2. NC(=O)N1c2ccccc2C=Cc2ccccc21 [Carbamazepine]
3. NC(=O)CN1CCCC1=O
4. CC(CN1c2ccccc2Sc2ccccc21)N(C)C (centres unmarked)
5. NS(=O)(=O)c1cc2c(cc1Cl)NCNS2(=O)=O [Hydrochlorothiazide]

Ans:
1. 40.0
2. -51.4
3. -9.5
4. 5.7
5. -55.4

====

assayed system: OCT2 (Homo sapiens, UniProt O15244)
assay protocol: Inhibition of OCT2-mediated [3H]MPP+ uptake in HEK-OCT2 cells
experimental parameters: human, pH 7.3
Would you mind telling me the reported % Inhibition of OCT2-dependent MPP+ uptake at 200 µM (mean ± SEM) of each entry?
Numbers only.

# count of solved cases: 3
compound | quantitative result
CCCc1nc2c(C)cc(-c3nc4ccccc4n3C)cc2n1Cc1ccc(-c2ccccc2C(=O)O)cc1 [Telmisartan] | 93.3
Cc1ccc(-c2nc3ccc(C)cn3c2CC(=O)N(C)C)cc1 [Zolpidem] | 90.7
CC(C)C[C@H](CN)CC(=O)O [Pregabalin] | -15.8

Let us examine a further case.
Q: % Inhibition of OCT2-dependent MPP+ uptake at 200 µM (mean ± SEM) for COC(=O)[C@H](c1ccccc1Cl)N1CCc2sccc2C1 [Clopidogrel] ?
Ans: 41.5

====

Would you mind telling me the reported % Inhibition of OCT2-dependent MPP+ uptake at 200 µM (mean ± SEM) of each entry?
assayed system: OCT2 (Homo sapiens, UniProt O15244)
assay protocol: Inhibition of OCT2-mediated [3H]MPP+ uptake in HEK-OCT2 cells
experimental parameters: test drug 200 µM; MPP+ 50 μM; 3 min; net uptake HEK-OCT2 minus HEK-VC
Numbers only, in %.

Please review the entries below; each comes with its answer.
molecule | units symbol | quantitative result
C[C@]12C=CC(=O)C=C1CC[C@@H]1[C@@H]2[C@@H](O)C[C@@]2(C)[C@H]1CC[C@]2(O)C(=O)CO | % | 68.6
CC(=O)NCCCS(=O)(=O)O [Acamprosate] | % | -7.7
CC(=O)N[C@@H](CS)C(=O)O | % | -36.0
NCCCC[C@H](N[C@@H](CCc1ccccc1)C(=O)O)C(=O)N1CCC[C@H]1C(=O)O | % | 9.8
CN1CCN(CCCN2c3ccccc3Sc3ccccc32)CC1 | % | 65.9
CN[C@H]1CC[C@@H](c2ccc(Cl)c(Cl)c2)c2ccccc21 | % | 96.1
Cc1cccc(C)c1NC(=O)c1cc(S(N)(=O)=O)c(Cl)cc1O [Xipamide] | % | 6.6
C#C[C@]1(O)CC[C@H]2[C@@H]3CCC4=CC(=O)CC[C@@H]4[C@H]3CC[C@@]21C | % | 3.0

Give one value of % Inhibition of OCT2-dependent MPP+ uptake at 200 µM (mean ± SEM) per listed molecule.
1. Nc1nc(N)c2nc(-c3ccccc3)c(N)nc2n1
2. C[C@]12CC[C@@H]3c4ccc(O)cc4CC[C@H]3[C@@H]1CC[C@@H]2O
3. CC(=O)Oc1ccccc1C(=O)O
4. Cc1c(OCC(F)(F)F)ccnc1C[S+]([O-])c1nc2ccccc2[nH]1 (stereo not shown)
5. Cc1cc2c(s1)Nc1ccccc1N=C2N1CCN(C)CC1
6. Nc1ccc(O)c(C(=O)O)c1
7. OCCN1CCN(CCCN2c3ccccc3C=Cc3ccccc32)CC1
8. COc1ccc2c3c1O[C@H]1C[C@@H](O)C=C[C@@]31CCN(C)C2

Ans:
1. 17.5
2. 19.0
3. -1.5
4. 90.1
5. 109.7
6. -68.0
7. 81.6
8. 12.3
